Value source: patent US20230295130A1

Test system: breast cancer cells MDA-MB 231
Experiment: Cell anti-proliferation experiment, MTT (Table 2)
Format: cell-based
Conditions: Homo sapiens, MDA-MB-231, 72 h, incubate 3 days
MEASUREMENT KIND: IC50 (nM)
One number for each entry, in nM.

Below: 4 compounds and their reported IC50.
{"COMPOUND": "COCCOC(=O)Nc1ccc2c(-c3nc(N[C@H]4CCCNC4)ncc3C(F)(F)F)c[nH]c2c1Br [Example T-62]", "TARGET SYSTEM": "breast cancer cells MDA-MB 231", "IC50 / nM": 75.5}
{"COMPOUND": "COC(=O)Nc1ccc2c(-c3nc(N[C@H]4CCCNC4)ncc3C(F)(F)F)c[nH]c2c1Br [Example T-01]", "TARGET SYSTEM": "breast cancer cells MDA-MB 231", "IC50 / nM": 145}
{"COMPOUND": "CCOC(=O)Nc1ccc2c(-c3nc(N[C@H]4CCCNC4)ncc3C(F)(F)F)c[nH]c2c1Br [Example T-42]", "TARGET SYSTEM": "breast cancer cells MDA-MB 231", "IC50 / nM": 181}
{"COMPOUND": "CC1(C)CC[C@H](Nc2ncc(C(F)(F)F)c(-c3c[nH]c4c(P(C)(C)=O)c(C#N)ccc34)n2)CN1 [Compound 101, reference compound]", "TARGET SYSTEM": "breast cancer cells MDA-MB 231", "IC50 / nM": 1660}

Moving on to the next compound.
// recorded IC50 for COC(=O)Nc1ccc2c(-c3nc(N[C@H]4CCCNC4)ncc3C(F)(F)F)c[nH]c2c1Cl [Example T-79] : 144

###

Target: CDK9/Cyclin Tl (Homo sapiens (Human), UniProt P50750)
Sequence (P50750 whole entry): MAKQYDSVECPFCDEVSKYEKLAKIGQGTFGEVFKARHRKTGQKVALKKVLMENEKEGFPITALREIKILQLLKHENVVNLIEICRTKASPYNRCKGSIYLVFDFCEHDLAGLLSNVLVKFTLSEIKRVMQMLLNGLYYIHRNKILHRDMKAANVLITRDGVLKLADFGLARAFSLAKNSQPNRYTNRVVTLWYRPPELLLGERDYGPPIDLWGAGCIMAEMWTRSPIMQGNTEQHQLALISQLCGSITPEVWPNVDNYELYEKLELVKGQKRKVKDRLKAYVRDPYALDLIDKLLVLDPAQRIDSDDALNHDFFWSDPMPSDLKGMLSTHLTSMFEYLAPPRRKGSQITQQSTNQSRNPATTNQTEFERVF
Sequence (O60563 whole entry partner): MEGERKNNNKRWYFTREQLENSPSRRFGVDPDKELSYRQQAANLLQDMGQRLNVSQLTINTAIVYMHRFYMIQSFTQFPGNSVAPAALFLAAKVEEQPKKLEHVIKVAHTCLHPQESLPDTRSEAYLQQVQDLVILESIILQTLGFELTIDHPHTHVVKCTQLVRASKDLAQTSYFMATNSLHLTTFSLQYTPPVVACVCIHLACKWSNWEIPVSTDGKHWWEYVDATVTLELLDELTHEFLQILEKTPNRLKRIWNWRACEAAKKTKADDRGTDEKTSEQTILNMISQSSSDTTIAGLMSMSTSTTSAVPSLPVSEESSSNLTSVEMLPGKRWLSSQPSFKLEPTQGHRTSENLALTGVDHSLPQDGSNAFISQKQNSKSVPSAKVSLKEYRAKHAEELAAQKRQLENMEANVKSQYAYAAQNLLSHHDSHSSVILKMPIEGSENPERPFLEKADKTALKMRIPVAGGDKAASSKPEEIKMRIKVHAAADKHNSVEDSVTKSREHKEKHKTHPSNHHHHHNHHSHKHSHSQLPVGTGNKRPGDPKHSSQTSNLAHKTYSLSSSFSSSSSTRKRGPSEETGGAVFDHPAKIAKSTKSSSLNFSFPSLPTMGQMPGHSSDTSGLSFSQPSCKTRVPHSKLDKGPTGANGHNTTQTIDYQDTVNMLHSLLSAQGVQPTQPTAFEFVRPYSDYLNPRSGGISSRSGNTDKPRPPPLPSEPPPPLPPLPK
Assay: Enzyme activity test, mobility shift assay (Table 1)
Details: 2 mM ATP; read-out: CDK9 kinase IC50
pIC50: −log10 of the molar value.
MEASUREMENT KIND: pIC50

Okay, here is my list. What is pIC50 for each of these?
1. COC(=O)Nc1ccc2c(-c3nc(N[C@H]4CC[C@@H](C)NC4)ncc3C(F)(F)F)c[nH]c2c1Cl
2. O=C1CCCN1c1ccc2c(-c3nc(N[C@H]4CCCNC4)ncc3C(F)(F)F)c[nH]c2c1
3. COC(=O)Nc1ccc2c(-c3nc(N[C@H]4CCC5(CC5)NC4)ncc3C(F)(F)F)c[nH]c2c1C(F)F
4. COC(=O)Nc1ccc2c(-c3nc(O[C@H]4CCCNC4)ncc3C(F)(F)F)c[nH]c2c1Br
5. COC(=O)Nc1ccc2c(-c3nc(N[C@H]4CCCNC4)ncc3C(F)(F)F)c[nH]c2c1Cl
6. COC(=O)Nc1ccc2c(-c3nc(N[C@H]4CCCNC4)ncc3C(F)(F)F)c[nH]c2c1C(F)F
7. CCOC(=O)Nc1ccc2c(-c3nc(N[C@H]4CCC(C)(C)NC4)ncc3C(F)(F)F)c[nH]c2c1C(C)(F)F

Marked response:
< 6.30
< 6.30
< 6.30
< 6.30
< 6.30
< 6.30
< 6.30

Okay, here is my list. What is pIC50 for each of these?
1. O=C(Nc1ccc2c(-c3nc(N[C@H]4CCCNC4)ncc3C(F)(F)F)c[nH]c2c1)C1CC1
2. COC(=O)Nc1ccc2c(-c3nc(N[C@H]4CCCNC4)ncc3C(F)(F)F)c[nH]c2c1C1CC1
3. COC(=O)Nc1ccc2c(-c3nc(N[C@H]4CCC[C@@H]4N)ncc3C(F)(F)F)c[nH]c2c1Br
4. COC(=O)Nc1ccc2c(-c3nc(NC4C5CCNC54)ncc3C(F)(F)F)c[nH]c2c1Br (centres unmarked)
5. CC(=O)Nc1ccc2c(-c3nc(N[C@H]4CCCNC4)ncc3C(F)(F)F)c[nH]c2c1Br
6. CCOC(=O)Nc1ccc2c(-c3nc(N[C@@H]4CNCC(C)(C)C4)ncc3C(F)(F)F)c[nH]c2c1Br
7. COC(=O)Nc1ccc2c(-c3nc(N[C@H]4CC[C@@H](C)NC4)ncc3C(F)(F)F)c[nH]c2c1OCC(F)(F)F
8. COC(=O)Nc1ccc2c(-c3nc(N[C@H]4[C@@H]5CNC[C@@H]54)ncc3C(F)(F)F)c[nH]c2c1Br

Marked response:
< 6.30
< 6.30
< 6.30
< 6.30
< 6.30
< 6.30
< 6.30
< 6.30

Okay, here is my list. What is pIC50 for each of these?
1. CCOC(=O)Nc1ccc2c(-c3nc(N[C@H]4CCCNC4)ncc3C(F)(F)F)c[nH]c2c1Br
2. COC(=O)Nc1ccc2c(-c3nc(N[C@@H]4[C@@H]5CNC[C@@H]54)ncc3C(F)(F)F)c[nH]c2c1Br
3. COC(=O)Nc1ccc2c(-c3nc(N[C@H]4CC[C@@H](C)NC4)ncc3C(F)(F)F)c[nH]c2c1C(F)(F)F
4. COC(=O)Nc1ccc2c(-c3nc(N[C@H]4CCC5(CC5)NC4)ncc3C(F)(F)F)c[nH]c2c1OC(F)F
5. COC(=O)Nc1ccc2c(-c3nc(N[C@H]4CCC5(CC5)NC4)ncc3C(F)(F)F)c[nH]c2c1Br
6. COC(=O)Nc1ccc2c(-c3nc(N[C@H]4CCC(C)(C)NC4)ncc3C(F)(F)F)c[nH]c2c1OC

Marked response:
1: < 6.30; 2: < 6.30; 3: < 6.30; 4: < 6.30; 5: < 6.30; 6: < 6.30

Okay, here is my list. What is pIC50 for each of these?
1. COC(=O)Nc1ccc2c(-c3nc(N[C@H]4CCCNC4)ncc3C(F)(F)F)c[nH]c2c1-c1cnn(C)c1
2. O=C1CCN1c1ccc2c(-c3nc(N[C@H]4CCCNC4)ncc3C(F)(F)F)c[nH]c2c1Br
3. COC(=O)N(C)c1ccc2c(-c3nc(N[C@H]4CCCNC4)ncc3C(F)(F)F)c[nH]c2c1Cl
4. COC(=O)Nc1ccc2c(-c3nc(N[C@H]4CCCNC4)ncc3C(F)(F)F)c[nH]c2c1P(C)(C)=O
5. COC(=O)Nc1ccc2c(-c3nc(N[C@H]4CCC5(CC5)NC4)ncc3C(F)(F)F)c[nH]c2c1C(C)(F)F

Marked response:
1. < 6.30
2. < 6.30
3. < 6.30
4. < 6.30
5. < 6.30
